B1: TEKT4 (parent)
chain: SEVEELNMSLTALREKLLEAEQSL

variants of: B1; test: protein stability index of a GFP-peptide fusion (GPS, HEK-293T) (PSI 1-6); higher = more stable; details: c terminus: a fixed tail appended;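 further: lentivirally expressed fusions sorted by FACS into six bins by GFP to DsRed ratio, PSI derived from sequencing read proportions per bin multiplied by bin number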
In this section we review reported protein stability index values for a set of variants.
Would you mind answering with just the numeric figure?

[[record]]
variant_notation = "A20T"
property_name = "protein stability index"
reading = 4.26

[[record]]
variant_notation = "S1Q"
property_name = "protein stability index"
reading = 3.52


Which protein stability index value belongs to "E4D" ?
2.63

Then this variant: "K16Y"
2.67
